Origin of the recorded values: paper PMC6384730

TEST DESCRIPTION: MTT cell viability (cytotoxicity) assay on L929 cells
Format: cell-based, mouse
MEASUREMENT CONTEXT: mouse, 31.25 µg/mL, 24 h, % of untreated cells

STRUCTURE: Cc1nc[nH]c1C(=O)NNC(=S)NCCCl
viability at 24 h, 31.25 µg/mL: 96%

---

System: L929 cells
TEST DESCRIPTION: MTT cell viability (cytotoxicity) assay on L929 cells
Format: cell-based, mouse
MEASUREMENT CONTEXT: L929 cells, 24 h exposure
Below, each of the compounds is paired with its reported CC30 (concentration required for 30% cells proliferation inhibition) value.
OUTCOME MEASURE: CC30 (concentration required for 30% cells proliferation inhibition) (µg/mL)

COMPOUND: Cc1cccc(NC(=S)NNC(=O)c2[nH]cnc2C)c1
ENDPOINT RESULT: 50.12
//
COMPOUND: Cc1nc[nH]c1C(=O)NNC(=S)Nc1ccccc1[N+](=O)[O-]
ENDPOINT RESULT: 181.55
//
COMPOUND: Cc1nc[nH]c1C(=O)NNC(=S)Nc1cc(F)ccc1F
ENDPOINT RESULT: 158.49
//
COMPOUND: CC(=O)c1cccc(NC(=S)NNC(=O)c2[nH]cnc2C)c1
ENDPOINT RESULT: 206.54
//
COMPOUND: Cc1ccc(NC(=S)NNC(=O)c2[nH]cnc2C)cc1
ENDPOINT RESULT: 34.67
//
COMPOUND: Cc1nc[nH]c1C(=O)NNC(=S)Nc1c(C(C)C)cccc1C(C)C
ENDPOINT RESULT: 190.55
//
COMPOUND: Cc1nc[nH]c1C(=O)NNC(=S)Nc1cccc([N+](=O)[O-])c1
ENDPOINT RESULT: 141.25
//
COMPOUND: COc1ccccc1NC(=S)NNC(=O)c1[nH]cnc1C
ENDPOINT RESULT: 138.04
//
COMPOUND: COc1ccc(NC(=S)NNC(=O)c2nc[nH]c2C)cc1
ENDPOINT RESULT: 389.05
//
COMPOUND: Cc1nc[nH]c1C(=O)NNC(=S)Nc1cccc(F)c1
ENDPOINT RESULT: 95.50
//
COMPOUND: Cc1nc[nH]c1C(=O)NNC(=S)Nc1cccc(Cl)c1
ENDPOINT RESULT: 112.20
//
COMPOUND: Cc1nc[nH]c1C(=O)NNC(=S)NCc1ccccc1
ENDPOINT RESULT: 123.03
//
COMPOUND: Cc1ccccc1NC(=S)NNC(=O)c1[nH]cnc1C
ENDPOINT RESULT: 288.40
//
COMPOUND: CCN(CC)c1ccc(NC(=S)NNC(=O)c2[nH]cnc2C)cc1
ENDPOINT RESULT: 63.10
//
COMPOUND: Cc1nc[nH]c1C(=O)NNC(=S)Nc1ccc([N+](=O)[O-])cc1
ENDPOINT RESULT: 238.78
//
COMPOUND: Nc1ccc(S(=O)(=O)Nc2ncccn2)cc1 [Sulfadiazine, reference compound]
ENDPOINT RESULT: 1251.12
//
COMPOUND: Cc1ccc(NC(=S)NNC(=O)c2[nH]cnc2C)cc1Cl
ENDPOINT RESULT: 28.18
//
COMPOUND: COc1cccc(NC(=S)NNC(=O)c2[nH]cnc2C)c1
ENDPOINT RESULT: 165.96
//
COMPOUND: Cc1nc[nH]c1C(=O)NNC(=S)Nc1ccc(N(C)C)cc1
ENDPOINT RESULT: 112.20
